Tested on: influenza virus H9N2 (A/Chicken/Korea/MS96/96)
Experiment: in vitro
Conditions: dog
property label: selectivity ratio

1. CCOC(=O)C1=C[C@@H](OC(CC)CC)[C@H](NC(C)=O)[C@@H](N)C1 [Tamiflu, reference compound]; > 200

----------
Reported values of pIC50 for individual entries
Molecular target: neuraminidase (R&D SYSTEM, 4858-NM) of recombinant rvH1N1 influenza A virus of 1918 Spanish flu virus (A/Bervig_Mission/1/18) (Influenza A virus, UniProt Q9IGQ6)
Sequence (Q9IGQ6 36-469 limits assumed): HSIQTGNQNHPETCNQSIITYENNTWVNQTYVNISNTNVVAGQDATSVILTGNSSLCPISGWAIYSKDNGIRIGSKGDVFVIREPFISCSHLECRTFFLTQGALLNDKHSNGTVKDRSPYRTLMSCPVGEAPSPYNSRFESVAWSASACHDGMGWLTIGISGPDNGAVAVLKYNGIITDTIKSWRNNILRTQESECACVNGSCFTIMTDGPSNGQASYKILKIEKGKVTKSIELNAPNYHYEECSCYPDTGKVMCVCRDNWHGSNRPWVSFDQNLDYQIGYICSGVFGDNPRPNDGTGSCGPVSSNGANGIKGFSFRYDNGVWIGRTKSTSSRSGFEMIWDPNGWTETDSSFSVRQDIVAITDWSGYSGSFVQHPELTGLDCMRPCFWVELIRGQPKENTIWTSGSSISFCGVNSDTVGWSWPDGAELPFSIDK
Test: biochemical
Parameters: species or system influenza A virus A/Bervig_Mission/1/18 (rvH1N1)
pIC50: −log10 of the molar value.
property label: pIC50

1. COc1cc(/C=C/C(=O)/C=C(O)/C=C/c2ccc(O)cc2)ccc1O [Demethoxycurcumin]; 5.52
2. O=C(/C=C(O)/C=C/c1ccc(O)cc1)/C=C/c1ccc(O)cc1 [Bisdemethoxycurcumin]; 5.22
